- System: Purified breast cancer cells from 67 patient (Pt) biopsies
- experimental_details: MiCK assay of drug-induced apoptosis, breast cancer specimens
- Format: cell-based, human
- experimental_setup: kinetic units of apoptosis, median over N patient samples
Recorded KU Median by entry
Record the value in KU, omitting the unit from your answer.

• O=P1(NCCCl)OCCCN1CCCl (stereo not drawn) [Ifosfamide, ifosfamide] = 1.5

(Q) Using the record for COc1cc([C@@H]2c3cc4c(cc3[C@@H](O[C@@H]3O[C@@H]5CO[C@@H](C)O[C@H]5[C@H](O)[C@H]3O)[C@H]3COC(=O)[C@H]23)OCO4)cc(OC)c1O [Etoposide, etoposide] , report its KU Median.
(A) 1.3

(Q) # KU Median lookup, item CN(Cc1cnc2nc(N)nc(N)c2n1)c1ccc(C(=O)N[C@@H](CCC(=O)O)C(=O)O)cc1 [Methotrexate, methotrexate]
(A) 0.9
